Data origin, for the record: patent US20130266574A1

Molecular target: T1, full-length hANGPTL4 (amino acid residues 26-406 of SEQ ID NO:476) with a C-terminal hexa-histidine tag (human, UniProt Q9BY76 26-406)
T1 sequence: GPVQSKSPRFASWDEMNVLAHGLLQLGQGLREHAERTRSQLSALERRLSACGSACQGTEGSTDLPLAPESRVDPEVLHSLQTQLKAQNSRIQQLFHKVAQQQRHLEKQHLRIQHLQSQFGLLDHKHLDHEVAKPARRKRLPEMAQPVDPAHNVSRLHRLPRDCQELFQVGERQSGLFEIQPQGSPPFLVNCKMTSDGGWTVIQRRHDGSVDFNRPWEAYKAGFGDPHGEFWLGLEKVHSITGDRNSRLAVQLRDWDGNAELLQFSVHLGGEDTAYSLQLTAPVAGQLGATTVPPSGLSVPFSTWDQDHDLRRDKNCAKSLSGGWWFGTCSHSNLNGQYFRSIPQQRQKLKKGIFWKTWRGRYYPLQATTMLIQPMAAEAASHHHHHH
Experiment: cell-based or functional assay
measured property: % Inhibition of hANGPTL4 Activity (LPL lipase test), hANGPTL4-His (10 nM) (%)
I only need the number, in %, no unit after it.

Query: Could you tell me which % Inhibition of hANGPTL4 Activity (LPL lipase test), hANGPTL4-His (10 nM) is on file for H1H284P (antibody, V domains shown, also called entire H1H284 mAb; Full mAb) VH: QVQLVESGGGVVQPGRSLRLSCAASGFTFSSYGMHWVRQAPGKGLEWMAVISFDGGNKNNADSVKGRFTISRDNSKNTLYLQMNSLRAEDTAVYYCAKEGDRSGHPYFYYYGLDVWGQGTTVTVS VL: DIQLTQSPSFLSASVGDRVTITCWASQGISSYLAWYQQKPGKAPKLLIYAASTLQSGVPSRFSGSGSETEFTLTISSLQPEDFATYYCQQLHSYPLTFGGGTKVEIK ?
Result: 90

Further cases:
Query: If you can, please state the reported % Inhibition of hANGPTL4 Activity (LPL lipase test), hANGPTL4-His (10 nM) value of H1H653P (antibody, V domains shown, Fully human antibody, H1H prefix (human IgG1)) VH: QVQLVESGGGVVQPGRSLRLSCVASGFTFSSYGMHWVRQAPGKGLEWMAVIWYDGSNKYFADSVKDRFTISRDNSKNTLYLQMNTLRPDDTAVYYCVKADAPLLIYGVDVWGQGTTVTVS VL: DIQMTQSPSSLSASVGDRVTITCRASQGIRNDLGWYQEKPGKAPKRLIYFASSLQSGVPSRFSGSGSGTEFTLTISSLQPEDFATYYCLQHNSYPYTFGQGTKLEIK .
Result: 48

Query: Similarly, H1H268P (antibody, V domains shown, also called entire H1H268 mAb; Full mAb) VH: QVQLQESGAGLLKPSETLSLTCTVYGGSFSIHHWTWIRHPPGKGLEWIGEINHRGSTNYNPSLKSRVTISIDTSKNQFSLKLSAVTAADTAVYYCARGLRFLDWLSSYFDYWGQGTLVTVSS VL: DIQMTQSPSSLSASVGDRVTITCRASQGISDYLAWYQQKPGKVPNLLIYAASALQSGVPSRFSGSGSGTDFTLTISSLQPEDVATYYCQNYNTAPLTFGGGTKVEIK ?
Result: 80

Query: Continue with H1H285P (antibody, V domains shown, Fully human antibody, H1H prefix (human IgG1)) VH: EVQLVESGGGLVQPGGSLRLSCAASGFTFSRYDMHWVRQVTGKGLEWVSGIGTAGDTYYPGSVKGRFTISRENDKNSLYLQMNSLRVGDTAVYYCARGDSKNYYVGDYFDYWGQGTLVTVSS VL: DIQMTQSPSTLSASVGDRVTFTCRASHSIGNWLAWYQQKPGKAPKVLIYEASSLEDGVPSRFSGSGSGTEFTLTISSLQPDDFATYYCQQYDTYFRTFGQGTKVEIK
Result: 47
